- Organism: Rattus norvegicus
- assay: DrugMatrix - Regimen: Daily Repeat
- Type: toxicity, organism-based, Sprague-Dawley
- Set-up: regimen Daily Repeat, gender Male, age 6-8 weeks
- experimental parameters: in vivo, sc, 0 mg/kg, 72 h, tissue Blood, route subcutaneous, dose level Control, time 3 day, […]
observable: MEAN CORPUSCULAR VOLUME (fL)
Numbers only; they are read as fL.

Please review the entries below; each comes with its answer.
- molecule: "CCC(=O)O[C@]1(C(=O)CCl)[C@@H](C)C[C@H]2[C@@H]3CCC4=CC(=O)C=C[C@]4(C)[C@@]3(F)[C@@H](O)C[C@@]21C [CLOBETASOL PROPIONATE]"
  unit tag: "fL"
  experimental value: 62.82
- molecule: "CC(C)(C)CC(C)(C)c1ccc(OCCOCC[N+](C)(C)Cc2ccccc2)cc1.[Cl-] [BENZETHONIUM CHLORIDE]"
  unit tag: "fL"
  experimental value: 63.93
- molecule: "Oc1c(Cl)cc(Cl)c(Cl)c1Cc1c(O)c(Cl)cc(Cl)c1Cl"
  unit tag: "fL"
  experimental value: 63.93
- molecule: "CCN(CC)CCOCCC1=CCC2CC1C2(C)C (stereo not given)"
  unit tag: "fL"
  experimental value: 63.65

Given the entry O=C(Nc1ccc(Br)cc1)c1cc(Br)cc(Br)c1O , report its measured MEAN CORPUSCULAR VOLUME.
62.82
